// Dissolving capacity for Dioxacarb lookup, one value per entry
test: Dissolution capacity of diluents/solvents for Dioxacarb and Arprocarb; format: physicochemical; conditions: at 20° C; solute Dioxacarb

>  <Compound>
CCCCCCCCCCCCCCCCCl

>  <Display Unit>
%

>  <Dissolving capacity for Dioxacarb>
0.7

$$$$
>  <Compound>
CCCCCO

>  <Display Unit>
%

>  <Dissolving capacity for Dioxacarb>
2.6

$$$$
>  <Compound>
CCCCCCCCCCCCCC(=O)OC(C)C [Isopropylmyristate]

>  <Display Unit>
%

>  <Dissolving capacity for Dioxacarb>
0.3

$$$$
>  <Compound>
CCCCCCCCOC(=O)c1ccccc1C(=O)OCCCCCCCC [Dioctylphthalate]

>  <Display Unit>
%

>  <Dissolving capacity for Dioxacarb>
0.1

$$$$
>  <Compound>
C1COCCO1

>  <Display Unit>
%

>  <Dissolving capacity for Dioxacarb>
23

$$$$

----------
test: Dissolution capacity of diluents/solvents for Dioxacarb and Arprocarb; assay type: physicochemical; conditions: at 20° C; solute Arprocarb; footnotes

>  <Molecule>
CCCCC(CC)COC(=O)CCCCC(=O)OCC(CC)CCCC (stereo not shown) [Di(2-ethylhexyl)adipate)]

>  <Display Unit>
%

>  <Dissolving capacity for Arprocarb>
2.8

$$$$
>  <Molecule>
COC(C)=O [Methylacetate]

>  <Display Unit>
%

>  <Dissolving capacity for Arprocarb>
41

$$$$
>  <Molecule>
CCOCCOCCOC(C)Oc1ccc2c(c1)OCO2 (stereo not shown)

>  <Display Unit>
%

>  <Dissolving capacity for Arprocarb>
5

$$$$
>  <Molecule>
CCCCCCCCCCCCCC(=O)OC(C)C [Isopropylmyristate]

>  <Display Unit>
%

>  <Dissolving capacity for Arprocarb>
1.3

$$$$
>  <Molecule>
CCCCCC

>  <Display Unit>
%

>  <Dissolving capacity for Arprocarb>
0.3

$$$$
>  <Molecule>
CCCCCCC

>  <Display Unit>
%

>  <Dissolving capacity for Arprocarb>
0.3

$$$$
>  <Molecule>
CCCCCCCCCCCCCCCCCl

>  <Display Unit>
%

>  <Dissolving capacity for Arprocarb>
0.4

$$$$
>  <Molecule>
CCCCCCCCOC(=O)c1ccccc1C(=O)OCCCCCCCC [Dioctylphthalate]

>  <Display Unit>
%

>  <Dissolving capacity for Arprocarb>
2.6

$$$$

----------
conditions: at 25° C

>  <Molecule>
C[N+](=O)[O-] [Nitromethane]

>  <Vapour pressure>
34 Torr

$$$$
>  <Molecule>
CCCCCl [1-Chlorobutane]

>  <Vapour pressure>
102 Torr

$$$$
>  <Molecule>
CC(=O)OC(C)C [Isopropylacetate]

>  <Vapour pressure>
55 Torr

$$$$
>  <Molecule>
CCCC(=O)OCC [Ethylbutyrate]

>  <Vapour pressure>
17 Torr

$$$$

----------
experiment: Dissolution capacity of diluents/solvents for Dioxacarb and Arprocarb; type: physicochemical; details: at 20° C; solute Dioxacarb
Measurement Name: Dissolution capacity for DIOXACARB (weight %)

>  <Compound>
CCC(C)OC(C)=O (stereo not shown) [sec. Butylacetate]

>  <Display Unit>
weight %

>  <Test Value>
6

$$$$
>  <Compound>
C1COCCO1

>  <Display Unit>
weight %

>  <Test Value>
23

$$$$
>  <Compound>
CCOC(C)=O [Ethylacetate]

>  <Display Unit>
weight %

>  <Test Value>
10.5

$$$$
>  <Compound>
CCC(C)=O

>  <Display Unit>
weight %

>  <Test Value>
5

$$$$
>  <Compound>
CC#N

>  <Display Unit>
weight %

>  <Test Value>
35.5

$$$$
>  <Compound>
CC(=O)OCC(C)C [Isobutylacetate]

>  <Display Unit>
weight %

>  <Test Value>
6

$$$$
>  <Compound>
C1CCOC1 [Tetrahydrofuran]

>  <Display Unit>
weight %

>  <Test Value>
33.5

$$$$

----------
test: Dissolution capacity of diluents/solvents for Dioxacarb and Arprocarb; assay type: physicochemical; conditions: at 20° C; solute Dioxacarb
Class boundaries, taken from values of Dissolving capacity for Dioxacarb, are as follows: bottom range: < 3%; center range: ≥ 3% and < 20%; top range: ≥ 20%

>  <Compound>
CC(Cl)(Cl)Cl

>  <Discrete Label>
bottom range

$$$$
>  <Compound>
CCCCOC(=O)c1ccccc1C(=O)OCCCC [Dibutylphthalate]

>  <Discrete Label>
bottom range

$$$$
>  <Compound>
CC#N

>  <Discrete Label>
top range

$$$$
>  <Compound>
CCOC(C)=O [Ethylacetate]

>  <Discrete Label>
center range

$$$$
>  <Compound>
C[N+](=O)[O-]

>  <Discrete Label>
top range

$$$$
>  <Compound>
CCOCCOCCOC(C)Oc1ccc2c(c1)OCO2 (centres unmarked)

>  <Discrete Label>
bottom range

$$$$
>  <Compound>
C1CCOC1 [Tetrahydrofuran]

>  <Discrete Label>
top range

$$$$
>  <Compound>
CCCCCl

>  <Discrete Label>
bottom range

$$$$
>  <Compound>
CC(C)O

>  <Discrete Label>
center range

$$$$

----------
conditions: at 25° C

>  <Molecule>
ClC(Cl)Cl [Trichloromethane]

>  <Comparison Symbol>
=

>  <Vapour pressure (Torr)>
194

$$$$
>  <Molecule>
OCC(O)CO [Glycerol]

>  <Comparison Symbol>
<

>  <Vapour pressure (Torr)>
0.0001

$$$$
>  <Molecule>
CCCCC [Pentane]

>  <Comparison Symbol>
=

>  <Vapour pressure (Torr)>
513

$$$$
>  <Molecule>
CCC(=O)OC [Methylpropionate]

>  <Comparison Symbol>
=

>  <Vapour pressure (Torr)>
83

$$$$
>  <Molecule>
COC(C)=O [Methylacetate]

>  <Comparison Symbol>
=

>  <Vapour pressure (Torr)>
216

$$$$
>  <Molecule>
CCCC(=O)OC [Methylbutyrate]

>  <Comparison Symbol>
=

>  <Vapour pressure (Torr)>
34

$$$$
>  <Molecule>
CCC(N)(CO)CO [2-Amino-2-ethyl-1,3-propanediol]

>  <Comparison Symbol>
=

>  <Vapour pressure (Torr)>
0.01

$$$$
>  <Molecule>
CCCCCCCCOC(=O)c1ccccc1C(=O)OCCCCCCCC [Dioctylphthalate]

>  <Comparison Symbol>
<

>  <Vapour pressure (Torr)>
0.0001

$$$$
>  <Molecule>
ClC=C(Cl)Cl [Trichloroethylene]

>  <Comparison Symbol>
=

>  <Vapour pressure (Torr)>
74

$$$$
>  <Molecule>
CCOC(C)=O [Ethylacetate]

>  <Comparison Symbol>
=

>  <Vapour pressure (Torr)>
97

$$$$
>  <Molecule>
CCCCOC(=O)c1ccccc1C(=O)OCCCC [Dibutylphthalate]

>  <Comparison Symbol>
<

>  <Vapour pressure (Torr)>
0.0001

$$$$
>  <Molecule>
CCCCOC(C)=O [Butylacetate]

>  <Comparison Symbol>
=

>  <Vapour pressure (Torr)>
11

$$$$
>  <Molecule>
ClCCl [Dichloromethane]

>  <Comparison Symbol>
=

>  <Vapour pressure (Torr)>
420

$$$$
>  <Molecule>
CCCCCCCCCCCCC1CC(=O)OC1=O (stereo not drawn) [2-Dodecylsuccinic-acid anhydride]

>  <Comparison Symbol>
=

>  <Vapour pressure (Torr)>
0.007

$$$$
>  <Molecule>
COCCO [2-Methoxyethanol]

>  <Comparison Symbol>
=

>  <Vapour pressure (Torr)>
8.6

$$$$
>  <Molecule>
CO [Methanol]

>  <Comparison Symbol>
=

>  <Vapour pressure (Torr)>
127

$$$$
>  <Molecule>
CC(C)O [Isopropanol]

>  <Comparison Symbol>
=

>  <Vapour pressure (Torr)>
44

$$$$
>  <Molecule>
COCCOC(C)=O [2-Methoxyethyl acetate]

>  <Comparison Symbol>
=

>  <Vapour pressure (Torr)>
5

$$$$
>  <Molecule>
CCC(C)=O [Methylethylketone]

>  <Comparison Symbol>
=

>  <Vapour pressure (Torr)>
20

$$$$
>  <Molecule>
CC(Cl)(Cl)Cl [1.1.1-Trichloro-ethane]

>  <Comparison Symbol>
=

>  <Vapour pressure (Torr)>
121

$$$$
>  <Molecule>
CCCCCCCCCCCCCCBr [1-Bromotetradecane]

>  <Comparison Symbol>
<

>  <Vapour pressure (Torr)>
0.001

$$$$
>  <Molecule>
CCCCOCCOCCOCCCC [5,8,11-Trioxapentadecane, 5,8,11-Trioxapenta-decane]

>  <Comparison Symbol>
=

>  <Vapour pressure (Torr)>
0.002

$$$$
>  <Molecule>
CC(C)=O [Acetone]

>  <Comparison Symbol>
=

>  <Vapour pressure (Torr)>
225

$$$$
>  <Molecule>
C1COCCO1 [Dioxan]

>  <Comparison Symbol>
=

>  <Vapour pressure (Torr)>
35

$$$$
>  <Molecule>
CCOC(=O)CC [Ethylpropionate]

>  <Comparison Symbol>
=

>  <Vapour pressure (Torr)>
37

$$$$
>  <Molecule>
CC(=O)OCC(C)C [Isobutylacetate]

>  <Comparison Symbol>
=

>  <Vapour pressure (Torr)>
17

$$$$
>  <Molecule>
CCCOC(C)=O [Propylacetate]

>  <Comparison Symbol>
=

>  <Vapour pressure (Torr)>
33

$$$$

----------
conditions: at 25° C
Measurement Name: log10(Vapour pressure) (log10 of the value in Torr)

>  <Compound>
CCCCCC

>  <Test Value>
2.18

$$$$
>  <Compound>
CCCCCO

>  <Test Value>
0.40

$$$$
>  <Compound>
CCCCCCCC(=O)O

>  <Test Value>
-2.70

$$$$
>  <Compound>
CCCCCCCC/C=C\CCCCCCCC(=O)O

>  <Test Value>
-3.70

$$$$
>  <Compound>
CCCCC(CC)COC(=O)CCCCC(=O)OCC(CC)CCCC (stereo not shown) [Di(2-ethylhexyl)adipate)]

>  <Test Value>
-2.15

$$$$
>  <Compound>
CCCCCCC

>  <Test Value>
1.59

$$$$
>  <Compound>
C1CCOC1 [Tetrahydrofuran]

>  <Test Value>
2.25

$$$$
>  <Compound>
CCCCCCCCCCCCO

>  <Test Value>
-3.00

$$$$
>  <Compound>
CC#N

>  <Test Value>
1.93

$$$$
>  <Compound>
CCCCCCCCCCCCCCCC

>  <Test Value>
-2.52

$$$$
>  <Compound>
CCC(C)OC(C)=O (stereo not shown) [sec. Butylacetate]

>  <Test Value>
1.41

$$$$

Values compiled from patent US4067990A.
